Cited source: patent US11091559B2

- tgt: murine ALK (purified mouse ALK antigen) (Mus musculus, UniProt P97793)
- Sequence (P97793 19-1042 limits assumed): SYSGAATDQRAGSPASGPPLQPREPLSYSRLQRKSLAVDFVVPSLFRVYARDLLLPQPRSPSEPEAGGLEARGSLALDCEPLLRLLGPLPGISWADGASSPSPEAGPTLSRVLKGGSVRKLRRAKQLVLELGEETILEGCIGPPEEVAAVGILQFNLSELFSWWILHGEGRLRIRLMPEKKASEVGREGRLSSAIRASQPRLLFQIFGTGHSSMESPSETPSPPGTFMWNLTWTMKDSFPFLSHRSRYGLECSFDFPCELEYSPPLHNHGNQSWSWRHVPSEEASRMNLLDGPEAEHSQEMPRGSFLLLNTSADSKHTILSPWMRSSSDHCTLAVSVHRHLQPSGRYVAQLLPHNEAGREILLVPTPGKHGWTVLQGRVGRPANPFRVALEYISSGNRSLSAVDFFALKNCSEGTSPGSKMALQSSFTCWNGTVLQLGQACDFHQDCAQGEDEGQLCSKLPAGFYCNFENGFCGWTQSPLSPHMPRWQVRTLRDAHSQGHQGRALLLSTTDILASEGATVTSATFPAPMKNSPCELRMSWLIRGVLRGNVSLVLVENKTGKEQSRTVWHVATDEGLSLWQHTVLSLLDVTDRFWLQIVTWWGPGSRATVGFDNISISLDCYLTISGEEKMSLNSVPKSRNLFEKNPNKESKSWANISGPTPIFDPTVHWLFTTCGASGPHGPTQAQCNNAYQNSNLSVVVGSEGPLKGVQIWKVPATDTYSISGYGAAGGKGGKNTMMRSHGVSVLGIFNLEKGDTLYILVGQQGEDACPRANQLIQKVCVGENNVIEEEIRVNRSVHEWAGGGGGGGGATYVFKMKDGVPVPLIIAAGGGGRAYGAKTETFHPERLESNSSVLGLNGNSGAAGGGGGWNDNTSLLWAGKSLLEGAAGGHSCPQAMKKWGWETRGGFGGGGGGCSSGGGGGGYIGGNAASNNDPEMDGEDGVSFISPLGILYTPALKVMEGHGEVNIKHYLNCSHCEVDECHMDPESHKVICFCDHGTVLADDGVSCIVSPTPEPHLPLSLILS
- assay-explanation: Mouse ALK cross-reactivity, solid-state ELISA
- Type: binding
- Set-up: key: − none; + weak; ++ moderate; +++ strong
- protocol-conditions: cross-reactivity with murine ALK
measurement-kind: mouse ALK binding

Ab325: anti-ALK monoclonal antibody; VL SEQ ID NO: 405, VH SEQ ID NO: 406 (antibody, V domains shown, VH domain - Ab325; VL domain - Ab325) VH: QVQLQQSGAELVKPGASVKISCKASGYAFSSYWMNWVKQRPGKGLEWIGQIYPGDGDTNYNGKFKGKATLTADKSSSTAYMQLSSLTSEDSAVYFCARWYYGSYYAMDYWGQGTSVTVSS VL: DIQMTQTTSSLSASLGDRVTISCRASQDISNYLNWYQQKPDGTVKLLIYYTSRLHSGVPSRFSGSGSGTDYSLTISNLEQEDIATYFCQQGNTLPRTFGGGTKLEIKR ... +
Ab323: anti-ALK monoclonal antibody; VL SEQ ID NO: 401, VH SEQ ID NO: 402 (antibody, V domains shown, VH domain - Ab323; VL domain - Ab323) VH: QVQLQQSGAELVKPGASVKISCKTSGYTFSNYWMNWVKQRPGKGLEWIGQIFPGDADANYNGKFKGKATLTADKSSSAAFMQLSSLTSEDSAVYFCARFSYDGAFAYWGQGTLVTVS VL: DIVMTQSHKFMSTSVGDRVSITCKASQDVSTAVAWYQQKPGQSPKPLIYWASTRHTGVPDRFTGSGSGTDYTLTISSVQTEDLALYYCQQHYSTPRTFGGGTKLEIKR ... +++
Ab320: anti-ALK monoclonal antibody; VL SEQ ID NO: 395, VH SEQ ID NO: 396 (antibody, V domains shown, VH domain - Ab320; VL domain - Ab320) VH: QVQLQQSGAELVKPGASVKISCKASGYAFSSYWMNWVKQRPGKGLEWIGQIYPGDGDTNYNGKFKGKATLTADKSSSTAYMQLSSLTSEDSAVYFCASYYYGSKAYWGQGTLVTVSA VL: DIQMTQSPASLAASVGETVTITCRASENIYYSLAWYQQKQGKSPQLLIYNANSLEDGVPSRFSGSGSGTQYSMKINSMQPEDTATYFCKQAYDVPFTFGSGTKLEIKR ... ++
Ab328: anti-ALK monoclonal antibody; VL SEQ ID NO: 411, VH SEQ ID NO: 412 (antibody, V domains shown, VH domain - Ab328; VL domain - Ab328) VH: QVQLQQSGAELAKPGASVKLSCKASGYTFTSYWMHWVKQRPGQGLEWIGYINPSSGYTKYNQKFKDKATLTADKSSSTAYMQLSSLTFEDSAVYYCARDYYGSSSWFAYWGQGTLVTVSA VL: DIVMTQSQKFMSTSVGDRVSVTCKASQNVGTNVAWYQQKPGHSPKALIYSASYRYSGVPDRFTGSGSGTDFTLTISNVQSEDLAEYFCQRYNSYPYMFTFGGGTKLEIKR ... +++
